Data credit: patent US20250092039A1

List of IC50 values.
- Target system: KRAS-G12V/RAF1 (Homo sapiens (Human), UniProt P01116, G12V)
- Sequence (P01116-2 other isoform, or with tags, fused parts or gaps G12V): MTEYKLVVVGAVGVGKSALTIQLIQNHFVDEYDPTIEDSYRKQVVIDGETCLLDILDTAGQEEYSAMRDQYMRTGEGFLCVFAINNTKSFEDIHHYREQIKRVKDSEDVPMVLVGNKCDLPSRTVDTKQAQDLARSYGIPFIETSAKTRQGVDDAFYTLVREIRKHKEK
- Test: KRAS/RAF1 binding inhibition assay (AlphaScreen)
Experimental endpoint: IC50

>  <Compound>
CCc1c(F)ccc2cc(O)cc(-c3ncc4c(N5CCC[C@@](C)(O)C5)nc(OCC5(CN6CCC7(CCN(CCc8cc(F)c(C9CCC(=O)NC9=O)c(F)c8)CC7)CC6)CC5)nc4c3F)c12 (stereo partly drawn)

>  <Result>
< 20 nM

$$$$
>  <Compound>
CCc1c(F)ccc2cc(O)cc(-c3ncc4c(N5CCC[C@@](C)(O)C5)nc(OCC5(CN6CC(N7CCC(N8CCN(c9ccc%10c(c9)CN([C@H]9CCC(=O)NC9=O)C%10=O)CC8)CC7)C6)CC5)nc4c3F)c12

>  <Result>
< 20 nM

$$$$
>  <Compound>
CCc1c(F)ccc2cc(O)cc(-c3ncc4c(N5CCC[C@@](C)(O)C5)nc(OCC5(CN6CCC7(CC6)CC(CN6CCN(c8ccc9c(c8)CN([C@H]8CCC(=O)NC8=O)C9=O)CC6)C7)CC5)nc4c3F)c12

>  <Result>
20 to 200 nM

$$$$

###

- Test: Pharmacokinetics following single intravenous and oral gavage dosing (AUC0-24h)
- Format: in vivo
- Study conditions: mouse, plasma; single oral dose 25 mg/Kg, male CD-1 mice

>  <Compound>
CCc1c(F)ccc2cc(O)cc(-c3ncc4c(N5CCC[C@@](C)(O)C5)nc(OCC5(CN6CCC(CN7CCN(c8ccc9c(c8)CN([C@H]8CCC(=O)NC8=O)C9=O)CC7)(OC)CC6)CC5)nc4c3F)c12 [Compound 25]

>  <Units symbol>
ng·h/mL

>  <AUC(0-t)>
525

$$$$

###

List of AUC(0-t) values.
- Test: Pharmacokinetics following single intravenous and oral gavage dosing (AUC0-24h)
- Type: in vivo
- Study conditions: mouse, plasma; single oral dose 30 mg/Kg, male CD-1 mice

>  <Compound>
CCc1c(F)ccc2cc(O)cc(-c3ncc4c(N5CCC[C@@](C)(O)C5)nc(OCC5(CN6CCC7(CC6)CC(CN6CCN(c8cc(F)c(C9CCC(=O)NC9=O)c(F)c8)CC6)C7)CC5)nc4c3F)c12 (some centres unmarked)

>  <AUC(0-t) [ng·h/mL]>
3170

$$$$
>  <Compound>
CCc1c(F)ccc2cc(O)cc(-c3ncc4c(N5CCC[C@@](C)(O)C5)nc(OCC5(CN6CCC(F)(CN7CCN(c8cccc9c8n(C)c(=O)n9C8CCC(=O)NC8=O)CC7)CC6)CC5)nc4c3F)c12 (some centres unmarked)

>  <AUC(0-t) [ng·h/mL]>
10700

$$$$
>  <Compound>
CCc1cccc2cc(O)cc(-c3ncc4c(N5CCC[C@@](C)(O)C5)nc(OCC5(CN6CCC(F)(CN7CCN(c8ccc9c(c8)CN([C@H]8CCC(=O)NC8=O)C9=O)CC7)CC6)CC5)nc4c3F)c12

>  <AUC(0-t) [ng·h/mL]>
509

$$$$
>  <Compound>
CCc1c(F)ccc2cc(O)cc(-c3ncc4c(N5CCCC6(CCO6)C5)nc(OCC5(CN6CCC(F)(CN7CCN(c8ccc9c(c8)CN([C@H]8CCC(=O)NC8=O)C9=O)CC7)CC6)CC5)nc4c3F)c12 (some centres unmarked)

>  <AUC(0-t) [ng·h/mL]>
1850

$$$$
>  <Compound>
CCc1c(F)ccc2cc(O)cc(-c3ncc4c(N5CCC[C@@](C)(O)C5)nc(OCC5(CN6CCC(F)(CN7CCN(c8ccc(C9CCC(=O)NC9=O)c(F)c8)CC7)CC6)CC5)nc4c3F)c12 (some centres unmarked)

>  <AUC(0-t) [ng·h/mL]>
11900

$$$$
